# measurement-description: Intrinsic clearance in human liver microsomes
# Format: ADME, Microsome
readout-type: CLint scaled (mL/min/kg)
Answers are plain numbers, in mL/min/kg.

Prompt: Tell me the measured CLint scaled of `Cc1c[nH]c2c(Nc3cccc(Cl)c3)ncc(C(=O)N3CCOCC3)c12` , please.
Completion: 1.6

----------
# measurement-description: Drug level in blood of rat joint model of chronic pain at 10 mg/kg, po BID for 5 days
# Assay type: ADME, organism-based
# Parameters: dose 10 mg/kg, route oral
# details: read-out: Drug uptake
readout-type: concentration at 120 h (µM)
One number for each entry, in µM.

Prompt: Find the recorded concentration at 120 h belonging to `Cn1ccc2c(Nc3cccc(Cl)c3)ncc(C(=O)N3CCOCC3)c21` and report it.
Completion: 6.1
